system: Sus scrofa; experiment: Release of growth hormone at single iv dose of 50 nmol/kg in pigs; assay type: functional
Where a SMILES comes first, the peptide text is derived from it. [ ]: non-standard residue; d: D form. d2Nal = N[C@H](Cc1ccc2ccccc2c1)C(=O)O; Aib = CC(C)(N)C(=O)O
Under this convention, T denotes GHmax strictly below 40 ng/mL and F denotes GHmax at or above 40 ng/mL.

Worked examples follow.
INSERT INTO measurements (molecule, labelvalue) VALUES
  ('CN(C)C(=O)[C@H](CCCCN)NC(=O)[C@H](Cc1ccccc1)N(C)C(=O)[C@H](Cc1ccc(-c2ccccc2)cc1)N(C)C(=O)/C=C/CC(C)(C)N', 'F'),
  ('CC(=O)NCCCCCNC(=O)[C@H](Cc1ccccc1)N(C)C(=O)[C@H](Cc1ccc2ccccc2c1)N(C)C(=O)/C=C/CC(C)(C)N', 'T'),
  ('CCNC(=O)NCCCCCNC(=O)[C@H](Cc1ccccc1)N(C)C(=O)[C@H](Cc1ccc2ccccc2c1)N(C)C(=O)/C=C/CC(C)(C)N', 'T'),
  ('CN(C)C(=O)[C@H](CCCCN)NC(=O)[C@H](Cc1ccccc1)N(C)C(=O)[C@H](Cc1ccc2ccccc2c1)N(C)C(=O)/C=C/CC(C)(C)N', 'F'),
  ('CN(C(=O)/C=C/CC(C)(C)N)[C@@H](Cc1ccc(-c2ccccc2)cc1)C(=O)N(C)[C@@H](Cc1ccccc1)C(=O)NCCCN', 'T');

I wonder whether "CN(C(=O)/C=C/CC(C)(C)N)[C@@H](Cc1ccc(-c2ccccc2)cc1)C(=O)N(C)[C@@H](Cc1ccccc1)C(=O)NCCCCN" has GHmax below 40 ng/mL. Can you tell? F

I wonder whether "CC(C)(N)C(=O)N[C@H](COCc1ccccc1)C(=O)N1CCC2(CC1)CN(S(C)(=O)=O)c1ccccc12" has GHmax below 40 ng/mL. Can you tell? F

I wonder whether "CN(C)CCCN(C)C(=O)[C@H](Cc1ccccc1)N(C)C(=O)[C@H](Cc1ccc(-c2ccccc2)cc1)N(C)C(=O)/C=C/CC(C)(C)N" has GHmax below 40 ng/mL. Can you tell? F

I wonder whether "CN(C(=O)/C=C/CC(C)(C)N)[C@@H](Cc1ccc(-c2ccccc2)cc1)C(=O)N(C)[C@@H](Cc1ccccc1)C(=O)NCCN" has GHmax below 40 ng/mL. Can you tell? F

I wonder whether "CN(C(=O)/C=C/CC(C)(C)N)[C@@H](Cc1ccc2ccccc2c1)C(=O)N(C)[C@@H](Cc1ccccc1)C(=O)N[C@@H](CCCCN)C(N)=O" has GHmax below 40 ng/mL. Can you tell? F

I wonder whether "CN(C)CCCN(C)C(=O)[C@H](Cc1ccccc1)N(C)C(=O)[C@H](Cc1ccc2ccccc2c1)N(C)C(=O)/C=C/CC(C)(C)N" has GHmax below 40 ng/mL. Can you tell? F

I wonder whether "CN(C)C(=O)CCCN(C)C(=O)[C@H](Cc1ccccc1)N(C)C(=O)[C@H](Cc1ccc2ccccc2c1)N(C)C(=O)/C=C/CC(C)(C)N" has GHmax below 40 ng/mL. Can you tell? T

I wonder whether "CNC(=O)CCCN(C)C(=O)[C@H](Cc1ccccc1)N(C)C(=O)[C@H](Cc1ccc2ccccc2c1)N(C)C(=O)/C=C/CC(C)(C)N" has GHmax below 40 ng/mL. Can you tell? T

I wonder whether "CN(C(=O)/C=C/CC(C)(C)N)[C@@H](Cc1ccc2ccccc2c1)C(=O)N(C)[C@@H](Cc1ccccc1)C(=O)NCCCCCN=C(N)N" has GHmax below 40 ng/mL. Can you tell? F

I wonder whether "CN(C)C(=O)CN(C)C(=O)[C@H](Cc1ccccc1)N(C)C(=O)[C@H](Cc1ccc2ccccc2c1)N(C)C(=O)/C=C/CC(C)(C)N" has GHmax below 40 ng/mL. Can you tell? F

I wonder whether CC(C)(N)C(=O)N[C@@H](Cc1c[nH]cn1)C(=O)N[C@H](Cc1ccc2ccccc2c1)C(=O)N[C@H](Cc1ccccc1)C(=O)N[C@@H](CCCCN)C(N)=O [IPAMORELIN] (H-[Aib]H[d2Nal][dF]K-NH2) has GHmax below 40 ng/mL. Can you tell? F

I wonder whether "CN(C(=O)/C=C/CC(C)(C)N)[C@@H](Cc1ccc(-c2ccccc2)cc1)C(=O)N(C)[C@@H](Cc1ccccc1)C(=O)NCCCCCCN" has GHmax below 40 ng/mL. Can you tell? F
